Molecular target: P70S6K (T412E mutant) (Homo sapiens (Human), UniProt P23443, T412E)
Sequence (P23443 whole entry T412E): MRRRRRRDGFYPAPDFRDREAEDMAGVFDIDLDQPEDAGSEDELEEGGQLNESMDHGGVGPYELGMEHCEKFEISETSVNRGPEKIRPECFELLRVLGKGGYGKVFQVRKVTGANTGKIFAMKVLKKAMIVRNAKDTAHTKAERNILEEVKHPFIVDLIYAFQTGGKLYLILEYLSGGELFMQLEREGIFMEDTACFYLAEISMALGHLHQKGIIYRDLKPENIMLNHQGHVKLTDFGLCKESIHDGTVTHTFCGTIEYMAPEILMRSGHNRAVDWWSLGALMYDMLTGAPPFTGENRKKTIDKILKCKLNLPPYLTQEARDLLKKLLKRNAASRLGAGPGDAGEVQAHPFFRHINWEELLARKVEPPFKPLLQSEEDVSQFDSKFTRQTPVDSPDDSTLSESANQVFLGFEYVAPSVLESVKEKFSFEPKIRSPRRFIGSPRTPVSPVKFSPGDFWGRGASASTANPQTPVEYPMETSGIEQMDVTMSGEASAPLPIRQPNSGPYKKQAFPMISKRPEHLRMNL
Assay: P70S6K enzyme assay
Format: biochemical
Conditions: read-out: IC50 p70S6K
Method: P70S6K inhibitor compounds are diluted and plated in 96 well plates. […] The reaction is incubated for 90 min at 25° C., before the addition of 10 mM EDTA to stop the reaction. The proportion of substrate and product (phosphorylated) peptide is analysed on a Caliper Life Sciences Lab Chip 3000, using a pressure of −1.4 psi, and upstream and downstream voltages of −3000 and −700 respectively. Product peaks are resolved before substrate peaks on the resulting chromatograms.
pIC50: −log10 of the molar value.
Endpoint name: pIC50

Sample records with pIC50:
Smiles string: N#Cc1c(N)ncnc1N1CCC(c2nc(-c3ccc(F)c(C(F)(F)F)c3)cn2CCN)CC1
pIC50: 8.82

Smiles string: Nc1ncnc(N2CCC(c3nc(-c4ccc(F)c(C(F)(F)F)c4)cn3CCN3CCC3)CC2)c1C=O
pIC50: 9.00

Smiles string: CNc1ncnc(N2CCC(c3nc(-c4ccc(F)c(C)c4)cn3CC3CNC3)CC2)c1Cl
pIC50: 5.89

Smiles string: COC(=O)/C=C/c1c(N)ncnc1N1CCC(c2nc(-c3ccc(F)c(C(F)(F)F)c3)cn2C)CC1
pIC50: 8.46

Smiles string: CNCCn1cc(-c2ccc(F)c(C)c2)nc1C1CCN(c2ncnc(N)c2C#N)CC1
pIC50: 9.05

I. Cc1cc(-c2cn(CCN3CCCC3)c(C3CCN(c4ncnc(N)c4OC(C)C)CC3)n2)ccc1F
II. CCc1c(N)ncnc1N1CCC(c2nc(-c3cccc(C(F)(F)F)c3)cn2CCN2CCCC2)CC1
III. Nc1ncnc(N2CCC(c3nc(-c4ccc(F)c(C(F)(F)F)c4)cn3CCN3CCC3)CC2)c1-c1ccc(C(=O)O)cc1
IV. CN(C)CCn1cc(-c2ccc(F)c(C(F)(F)F)c2)nc1C1CCN(c2ncnc(N)c2C#N)CC1
Rank descending by pIC50. The labels, placed in the requested order, form the answer.
IV, II, III, I

###

Target: His-AKT (Full Length) (Homo sapiens (Human), UniProt P31749)
Sequence (P31749 whole entry): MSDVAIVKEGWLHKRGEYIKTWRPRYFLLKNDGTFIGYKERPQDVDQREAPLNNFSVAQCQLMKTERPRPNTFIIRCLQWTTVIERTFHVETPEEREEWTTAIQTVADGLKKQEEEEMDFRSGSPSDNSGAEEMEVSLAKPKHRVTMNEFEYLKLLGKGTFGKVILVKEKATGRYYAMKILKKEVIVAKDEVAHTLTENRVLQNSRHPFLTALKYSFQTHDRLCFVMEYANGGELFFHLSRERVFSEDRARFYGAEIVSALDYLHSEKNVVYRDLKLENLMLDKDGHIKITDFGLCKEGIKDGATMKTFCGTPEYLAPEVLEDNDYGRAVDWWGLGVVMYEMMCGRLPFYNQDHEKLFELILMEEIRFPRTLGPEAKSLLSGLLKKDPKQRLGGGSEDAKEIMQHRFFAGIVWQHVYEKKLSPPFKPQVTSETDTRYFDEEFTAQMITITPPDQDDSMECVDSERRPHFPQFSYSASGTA
Experiment: AKT enzyme assay
Type: biochemical
Conditions: read-out: IC50 AKT
Endpoint name: IC50 (nM)

a. NC(=O)c1c(N)ncnc1N1CCC(c2nc(-c3cccc(Cl)c3)cn2CCN2CCCC2)CC1
b. C=Cc1c(N)ncnc1N1CCC(c2nc(-c3ccc(F)c(C(F)(F)F)c3)cn2CCN2CCC2)CC1
c. C=Cc1c(N)ncnc1N1CCC(c2nc(-c3ccc(F)c(F)c3)cn2CCN2CCCC2)CC1
d. Cc1ccc(-c2cn(CCN3CCC3)c(C3CCN(c4ncnc(N)c4C#N)CC3)n2)cc1C(F)(F)F
Using the list above, order everything by rising IC50. The labels, placed in the requested order, form the answer.
b, c, d, a
(b: 4.2 nM, c: 9.7 nM, d: 24 nM, a: 76 nM)

###

Target: P70S6K (T412E mutant) (Homo sapiens (Human), UniProt P23443, T412E)
Assay: P70S6K enzyme assay
Type: biochemical
Conditions: read-out: IC50 p70S6K
Endpoint name: IC50 (nM)

Sample records with IC50:
Smiles string: Cc1cc(-c2cn(CCNCC(C)C)c(C3CCN(c4ncnc(N)c4C(N)=O)CC3)n2)ccc1F
Experimental target: P70S6K (T412E mutant) (Homo sapiens (Human), UniProt P23443, T412E)
Endpoint name: IC50
Meas value: 5.5
--
Smiles string: N#Cc1c(N)ncnc1N1CCC(c2nc(-c3cccc(Cl)c3)cn2CCN2CCCC2)CC1
Experimental target: P70S6K (T412E mutant) (Homo sapiens (Human), UniProt P23443, T412E)
Endpoint name: IC50
Meas value: 2.3
--
Smiles string: Nc1ncnc(N2CCC(c3nc(-c4ccnc(C(F)(F)F)c4)cn3CCN3CCC3)CC2)c1Br
Experimental target: P70S6K (T412E mutant) (Homo sapiens (Human), UniProt P23443, T412E)
Endpoint name: IC50
Meas value: 0.5

I. Nc1ncnc(N2CCC(c3nc(-c4ccc(C(F)(F)F)c(F)c4)cn3CCN3CCCC3)CC2)c1Br
II. Nc1ncnc(N2CCC(c3nc(-c4ccc(F)c(C(F)(F)F)c4)cn3CCN3CCC3)CC2)c1-c1cc[nH]c1
III. Nc1ncnc(N2CCC(c3nc(-c4ccc(F)c(C(F)(F)F)c4)cn3CCN3CCCC3)CC2)c1Cl
IV. CCc1c(N)ncnc1N1CCC(c2nc(-c3ccc(F)c(F)c3)cn2CCN2CCCC2)CC1
Rank descending by IC50. The labels, placed in the requested order, form the answer.
I, III, IV, II
